Every entry's value here was drawn from patent US6399083B1.

In this section, each of the compounds is paired with its reported CRABP-2 levels.
- Tested on: CRABP-2
- Protocol summary: CRABP-2 protein expression in fibroblasts by Western immuno-blotting and densitometric scanning
- Assay type: cell-based, Human
- Condition context: second table headed Example 3: 500 nM retinoids and 0.1 μl of a 10% chick pea extract; +/- SD of triplicates
Property measured: CRABP-2 levels

>>> df
                                   compound  measured_value
0  CCCCCCCCCCCCCCCC(=O)OC/C=C(C)/C=C/C=C(C)/C=C/C1=C(C)CCCC1(C)C [Retinyl Palmitate, retinyl palmitate]   0.94 +/− 0.31
1  CC(=O)OC/C=C(C)/C=C/C=C(C)/C=C/C1=C(C)CCCC1(C)C [Retinyl acetate, retinyl acetate]   1.65 +/− 0.49
2  CCCCC/C=C\C/C=C\CCCCCCCC(=O)OC/C=C(C)/C=C/C=C(C)/C=C/C1=C(C)CCCC1(C)C [Retinyl linoleate, retinyl linoleate]   0.81 +/− 0.16
3  CC1=C(/C=C/C(C)=C/C=C/C(C)=C/CO)C(C)(C)CCC1   0.72 +/− 0.04

---

- System: CRABP-2
- Protocol summary: CRABP-2 protein expression in fibroblasts by Western immuno-blotting and densitometric scanning
- Format: cell-based, Human
- Condition context: Example 1: 100 nM retinoids and 0.1 μl of a 10% chick pea extract; +/- SD of triplicates
- Description: Dried chick pea was purchased from local markets and powdered in a dry grinder. The alcoholic extract of chick pea was prepared by stirring 1 gram of the dry chick pea powder in 10 ml of ethanol for 4 to 24 hrs at room temperature. […] Human adult fibroblasts obtained from sun-protected inner arm of […] were used in this. […] The suspension was spun at 14000 rpm for 10 minutes, the supernatant collected and an aliquot of this supernatant was used for protein quantification. […]
Property measured: CRABP-2 levels

                                   molecule  property_measured  measured_value
0  CC(=O)OC/C=C(C)/C=C/C=C(C)/C=C/C1=C(C)CCCC1(C)C [Retinyl acetate, retinyl acetate]     CRABP-2 levels   1.44 +/− 0.26
1  CCCCCCCCCCCCCCCC(=O)OC/C=C(C)/C=C/C=C(C)/C=C/C1=C(C)CCCC1(C)C [Retinyl Palmitate, retinyl palmitate]     CRABP-2 levels   1.84 +/− 0.16
2  CCCCC/C=C\C/C=C\CCCCCCCC(=O)OC/C=C(C)/C=C/C=C(C)/C=C/C1=C(C)CCCC1(C)C [Retinyl linoleate, retinyl linoleate]     CRABP-2 levels   2.06 +/− 0.09
3  CC1=C(/C=C/C(C)=C/C=C/C(C)=C/CO)C(C)(C)CCC1     CRABP-2 levels   2.02 +/− 0.23

---

- System: CRABP-2
- Protocol summary: CRABP-2 protein expression in fibroblasts by Western immuno-blotting and densitometric scanning
- Assay type: cell-based, Human
- Condition context: Example 3: 500 nM retinoids and 0.1 μl of a 10% chick pea extract; control as 100%
In this section, each of the compounds is paired with its reported As % of control.
Property measured: As % of control

>>> print(df.to_string())
                                   compound  property_measured           measured_value
0  CCCCC/C=C\C/C=C\CCCCCCCC(=O)OC/C=C(C)/C=C/C=C(C)/C=C/C1=C(C)CCCC1(C)C [Retinyl linoleate, retinyl linoleate]    As % of control  115 +/− 23 % of control
1  CC1=C(/C=C/C(C)=C/C=C/C(C)=C/CO)C(C)(C)CCC1    As % of control   102 +/− 6 % of control
2  CC(=O)OC/C=C(C)/C=C/C=C(C)/C=C/C1=C(C)CCCC1(C)C [Retinyl acetate, retinyl acetate]    As % of control  235 +/− 70 % of control
3  CCCCCCCCCCCCCCCC(=O)OC/C=C(C)/C=C/C=C(C)/C=C/C1=C(C)CCCC1(C)C [Retinyl Palmitate, retinyl palmitate]    As % of control  135 +/− 45 % of control
